Provide the recorded growth for the entries that follow.
Test system: RPMI-8226 leukemia
Experiment: NCI-60 one-dose screen, 48 h (100 = growth as untreated, 0 = no growth, -100 = all killed)
Settings: 10 µM unless noted
Compounds without any hit were thinned out: in the full panel of roughly 83,000, 20% have a hit.
Numbers only, in %.

Some entries whose results are on file:
Problem: Identify growth associated with the compound CC1(C)CC(=O)C2=C(C1)N(c1ccc(F)cc1F)C(N)=C(C#N)C2c1cc(Br)ccc1F (stereo unspecified)
Result: 80.6

Problem: Identify growth associated with the compound "O=C1/C=C/[C@@H](O)[C@@H]2C[C@@H](O)C[C@H]2/C=C/CCC[C@H](CCc2cccc3ccccc23)O1"
Result: 22

Problem: Identify growth associated with the compound "C#CCNC(=O)[C@H](Cc1ccccc1)NC(=O)[C@]12CC[C@@H](C(=C)C)[C@@H]1[C@H]1CC[C@@H]3[C@@]4(C)CCC(=O)C(C)(C)[C@@H]4CC[C@@]3(C)[C@]1(C)CC2"
Result: 38

Problem: Identify growth associated with the compound "CCN(Cc1ccccc1)c1ccc(C=O)cc1"
Result: 90.4

Problem: Identify growth associated with the compound CCN(CC)CCOc1ccc(NC(=O)C(C(C)C)N2C(=O)/C(=C/c3ccc(Br)cc3)SC2=S)cc1 (stereo unspecified)
Result: 19.5

Problem: Identify growth associated with the compound "CCCCCN1C=C/C(=C\C(=O)N2CCCc3ccccc32)c2ccccc21"
Result: 43.9

Problem: Identify growth associated with the compound "N#C/C(=C\c1ccc([N+](=O)[O-])s1)c1nc2cc(Br)ccc2s1"
Result: -43.5

Problem: Identify growth associated with the compound "CC(=O)[C@@H]1CC[C@]2(CO)CC[C@]3(C)[C@H](CC[C@@H]4[C@@]5(C)CCCNC(C)(C)[C@@H]5CC[C@]43C)[C@@H]12"
Result: 98.6

Quick batch: growth for everything below.
1. COc1c(Cl)c2c(c(OC)c1OC)-c1ccc(SC)c(=O)cc1[C@@H](NC(=O)OCC(F)(F)F)CC2
2. C=C1C(=O)O[C@H]2[C@H]1CC/C(COC(=O)NCCc1c[nH]c3ccc(OC)cc13)=C\CC[C@@]1(C)O[C@@H]21
3. CCOC(=O)Oc1c(OC)cc(C(=O)c2ccc(OC)c(OC(=O)CCl)c2OC)cc1OC
4. N#CC(C#N)=Cc1cc2ccccc2nc1Oc1ccc(C(F)(F)F)cc1
5. C=C(C)[C@@H]1CC[C@]2(C(=O)N3CCN(C)CC3)CC[C@]3(C)[C@H](CC[C@@H]4[C@@]5(C)CC[C@H](O)C(C)(C)[C@@H]5CC[C@]43C)[C@@H]12
6. CN(C)CCC(=O)c1ccc([N+](=O)[O-])cc1

Result:
1: 2.59; 2: -18.4; 3: 18.4; 4: 3.66; 5: -40.1; 6: 89

Quick batch: growth for everything below.
1. Cc1nc(N)nc(N[C@@H](C)c2nc3cccc(NCc4ccc(C(=O)NO)cc4)c3c(=O)n2-c2ccccc2)n1
2. Cc1cc(C(=O)/C=C/c2ccc[nH]2)ccc1-n1ccc(C(F)(F)F)n1

Result:
[17.2, -40.1]
